Tested on: PC-3 prostate
Assay: NCI tumour cell line growth inhibition, 48 h
propertyLabel: TGI

Below: 4 compounds and their reported TGI.
INPUT: Please list TGI recorded for the compound Cc1[nH]c2ccccc2c1CCNCc1ccc(/C=C/C(=O)NO)cc1
OUTPUT: 2.86 µM

INPUT: Please list TGI recorded for the compound NC(=O)NC(=O)c1cccc(NC(=O)CF)c1
OUTPUT: > 100 µM

INPUT: Please list TGI recorded for the compound CCN1C(=O)N(CC)C2C1NN=c1s/c(=C\c3cc4ccccc4[nH]3)c(=O)n12 (stereo unspecified)
OUTPUT: > 100 µM

INPUT: Please list TGI recorded for the compound O=C(/C=C/c1ccc(Cl)cc1)c1cccs1
OUTPUT: 32.8 µM

More entries:
INPUT: Please list TGI recorded for the compound CCSc1nc(=[N+]2CCCC2)ss1
OUTPUT: > 100 µM

INPUT: Please list TGI recorded for the compound Cc1cc2nc(-c3c(F)cccc3F)n(Cc3c(F)cccc3F)c2cc1C
OUTPUT: 40.6 µM

INPUT: Please list TGI recorded for the compound O=C(O)CC1(CC(=O)O)Nc2ccccc2SC1=O
OUTPUT: > 100 µM

INPUT: Please list TGI recorded for the compound C=CCCCC1CCCNC1=S (stereo unspecified)
OUTPUT: > 100 µM

INPUT: Please list TGI recorded for the compound Nc1nc(N)c2[nH]cnc2n1 (tested in a mixture with another compound)
OUTPUT: 94.6 µM

INPUT: Please list TGI recorded for the compound Cc1ccc(-c2c(C#N)c(N)nc3c2CCS(=O)(=O)c2ccccc2-3)cc1
OUTPUT: > 100 µM

INPUT: Please list TGI recorded for the compound CC1(C)CC[C@]2(C(=O)N3CCOCC3)CC[C@]3(C)C(=CC[C@@H]4[C@@]5(C)C/C(=C/c6ccncc6)C(=O)C(C)(C)[C@@H]5CC[C@]43C)[C@@H]2C1
OUTPUT: 46.1 µM

INPUT: Please list TGI recorded for the compound COC(=O)C1CCC(=O)N1C(c1ccccc1)c1cc(OC)c(OC)c(OC)c1 (stereo unspecified)
OUTPUT: > 100 µM

INPUT: Please list TGI recorded for the compound COCCNc1cc(NC(=O)N2CCCc3cc(CN4CCN(C)CC4=O)c(C=O)nc32)ncc1C#N
OUTPUT: > 50 µM

INPUT: Please list TGI recorded for the compound CC(C)N1C(NNC(=O)c2cnccn2)=NS(=O)(=O)c2ccccc21
OUTPUT: > 100 µM
